Hello, the source for this data is patent US20170210751A1, in case you need it.

- Tested on: Symmetric di-Methyl Arginine in Z-138 cells
- method: Z-138 Methylation Assay (In Cell Western for symmetric di-methyl arginine)
- Type: cell-based
- conditions used: Homo sapiens, 96 hours incubation, symmetric di-methyl arginine normalised to DNA content, read-out: ICW EC50
pEC50: −log10 of the molar value.
Catalogue of pEC50 readings, one per entry.

molecule: CC(=O)N1CCC(Nc2cc(C(=O)NC[C@H](O)CN3CCc4c(cnn4C)C3)ncn2)CC1 [Compound 3-56]
pEC50: < 6.00
--
molecule: O=C(COc1cccc2cccnc12)NCC(O)CN1CCc2ncccc2C1 (stereo not shown) [Compound 2-6]
pEC50: < 6.00
--
molecule: CC(=O)N1CCC(Nc2cc(C(=O)NC[C@H](O)CN3CCc4scnc4C3)ccn2)CC1 [Compound 1-30]
pEC50: 6.00 to 7.00
--
molecule: CC(=O)N1CCC(Nc2cc(C(=O)NC[C@H](O)CN3CCc4ncccc4C3)ncn2)CC1 [Compound 2-14]
pEC50: 6.00 to 7.00
